Molecular target: specific ANP receptor sites on BASM or BAE cells (Bos taurus, UniProt P10730)
Construct: specific receptor sites on BASM or BAE cells; endogenous in cells; host or cells: cultured BASM and BAE cells
Sequence (P10730 42-537): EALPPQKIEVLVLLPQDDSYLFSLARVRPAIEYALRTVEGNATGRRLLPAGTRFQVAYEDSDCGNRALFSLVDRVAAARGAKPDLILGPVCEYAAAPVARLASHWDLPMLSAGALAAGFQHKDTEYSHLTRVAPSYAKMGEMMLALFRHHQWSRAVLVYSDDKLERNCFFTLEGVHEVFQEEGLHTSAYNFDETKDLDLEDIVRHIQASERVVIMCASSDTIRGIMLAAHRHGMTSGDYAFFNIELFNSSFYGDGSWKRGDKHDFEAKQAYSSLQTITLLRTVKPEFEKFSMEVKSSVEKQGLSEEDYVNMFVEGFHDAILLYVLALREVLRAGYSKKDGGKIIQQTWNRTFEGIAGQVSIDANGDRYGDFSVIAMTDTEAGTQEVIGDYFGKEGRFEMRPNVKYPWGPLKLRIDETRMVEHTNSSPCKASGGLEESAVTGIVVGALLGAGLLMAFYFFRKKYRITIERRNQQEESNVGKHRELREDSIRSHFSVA
Assay: Competitive displacement receptor binding of (125I)-rANP(126-150) on cultured cells
Parameters: species or system bovine
Details: concentration of unlabeled peptide displacing 50% of maximal binding of 0.5 nM (125I)-rANP(126-150); BASM or BAE cells
Where a SMILES comes first, the peptide text is derived from it. The star is where a group is joined. Acetyl(2-naphthyl) = O=C(Cc1ccc2ccccc2c1)*; 2Naphthoyl = O=C(c1ccc2ccccc2c1)*; Inp = O=C(O)C1CCNCC1
Entries and their Ki(app) values follow.
REPORTED ENDPOINT: Ki(app)

molecule="CC[C@H](C)[C@H](NC(=O)[C@H](CCCNC(=N)N)NC(=O)[C@H](CC(=O)O)NC(=O)[C@@H](NC(=O)[C@H](CCCNC(=N)N)NC(=O)C1CCN(C(=O)c2ccc3ccccc3c2)CC1)[C@@H](C)CC)C(N)=O [AP562] ({2Naphthoyl-Inp}-RIDRI-NH2)" recorded_value="0.0224 µM"
molecule="CC[C@H](C)[C@H](NC(=O)[C@H](CCCNC(=N)N)NC(=O)[C@H](CC(=O)O)NC(=O)[C@@H](NC(=O)[C@H](CCCNC(=N)N)NC(=O)C1CCN(C(=O)Cc2ccc3ccccc3c2)CC1)[C@@H](C)CC)C(N)=O [AP538] ({Acetyl(2-naphthyl)-Inp}-RIDRI-NH2)" recorded_value="0.0099 µM"

* * *

Target: specific ANP receptor sites on BASM or BAE cells (Bos taurus, UniProt P10730)
Construct: specific receptor sites on BASM or BAE cells; endogenous in cells; host or cells: cultured BASM and BAE cells
Assay: Competitive displacement receptor binding of (125I)-rANP(126-150) on cultured cells
Design: species or system bovine
Conditions: concentration of unlabeled peptide displacing 50% of maximal binding of 0.5 nM (125I)-rANP(126-150); BASM or BAE cells
Where a SMILES comes first, the peptide text is derived from it. [ ]: non-standard residue; d: D form. The star is where a group is joined. Acetyl(2-naphthyl) = O=C(Cc1ccc2ccccc2c1)*; Hydrocinnamoyl = O=C(CCc1ccccc1)*; Cha = N[C@@H](CC1CCCCC1)C(=O)O; Orn = NCCC[C@H](N)C(=O)O
Classify: 1.0 when Ki(app) is strictly less than 20 nM; 0.0 when Ki(app) is not.

compound="CC[C@H](C)[C@H](NC(=O)[C@H](CCCNC(=N)N)NC(=O)[C@H](CCC(=O)O)NC(=O)[C@@H](NC(=O)[C@H](CCCNC(=N)N)NC(=O)CNC(=O)CNC(=O)Cc1ccc2ccccc2c1)[C@@H](C)CC)C(N)=O [AP518, (2-NA)--G--G--R--I--E--R--I--NH2] ({Acetyl(2-naphthyl)}-GGRIERI-NH2)" category_label=0.0
compound="CC[C@H](C)[C@H](NC(=O)[C@H](CCCNC(=N)N)NC(=O)[C@H](CC(=O)O)NC(=O)[C@@H](NC(=O)[C@H](CCCNC(=N)N)NC(=O)CNC(=O)CNC(=O)CCc1ccccc1)[C@@H](C)CC)C(N)=O [AP132, (desNH2 --F)--G--G--R--I--D--R--I--NH2] (Hydrocinnamoyl-GGRIDRI-NH2)" category_label=1.0
compound="CC[C@H](C)[C@H](NC(=O)[C@H](CCCNC(=N)N)NC(=O)[C@H](CC(=O)O)NC(=O)[C@H](CC1CCCCC1)NC(=O)[C@H](CCCNC(=N)N)NC(=O)CNC(=O)CNC(=O)Cc1ccc2ccccc2c1)C(N)=O [AP527, (2-NA)--G--G--R--Cha--D--R--I--NH2] ({Acetyl(2-naphthyl)}-GGR[Cha]DRI-NH2)" category_label=0.0
compound=CC[C@H](C)[C@H](NC(=O)[C@H](CCCNC(=N)N)NC(=O)[C@H](CC(=O)O)NC[C@@H](NC(=O)[C@H](CCCNC(=N)N)NC(=O)Cc1ccc(NC(=O)Cc2ccc3ccccc3c2)cc1)[C@@H](C)CC)C(N)=O category_label=0.0
compound="CC[C@H](C)[C@H](NC(=O)[C@H](CCCNC(=N)N)NC(=O)CNC(=O)CNC(=O)[C@H](Cc1ccccc1)NC(=O)[C@H](C)N)C(=O)N[C@@H](CC(=O)O)C(=O)N[C@H](CCCNC(=N)N)C(=O)N[C@H](C(=O)NCC(=O)N[C@@H](C)C(N)=O)[C@@H](C)CC [AP304, A--F--G--G--R--I--D--R^ --I--G--A--NH2] (H-AFGGRID[dR]IGA-NH2)" category_label=0.0
compound="CC[C@H](C)[C@H](NC(=O)[C@H](CCCN)NC(=O)[C@H](CC(=O)O)NC(=O)[C@@H](NC(=O)[C@H](CCCNC(=N)N)NC(=O)CNC(=O)CNC(=O)Cc1ccc2ccccc2c1)[C@@H](C)CC)C(N)=O [AP592, (2-NA)--G--G--R--I--D--Orn--I--NH2] ({Acetyl(2-naphthyl)}-GGRID[Orn]I-NH2)" category_label=0.0
